Molecular target: human αVβ6 integrin on cells (human, UniProt P06756 31-1048; P18564 22-788)
Sequence (P06756 31-1048, chain 1 of 2): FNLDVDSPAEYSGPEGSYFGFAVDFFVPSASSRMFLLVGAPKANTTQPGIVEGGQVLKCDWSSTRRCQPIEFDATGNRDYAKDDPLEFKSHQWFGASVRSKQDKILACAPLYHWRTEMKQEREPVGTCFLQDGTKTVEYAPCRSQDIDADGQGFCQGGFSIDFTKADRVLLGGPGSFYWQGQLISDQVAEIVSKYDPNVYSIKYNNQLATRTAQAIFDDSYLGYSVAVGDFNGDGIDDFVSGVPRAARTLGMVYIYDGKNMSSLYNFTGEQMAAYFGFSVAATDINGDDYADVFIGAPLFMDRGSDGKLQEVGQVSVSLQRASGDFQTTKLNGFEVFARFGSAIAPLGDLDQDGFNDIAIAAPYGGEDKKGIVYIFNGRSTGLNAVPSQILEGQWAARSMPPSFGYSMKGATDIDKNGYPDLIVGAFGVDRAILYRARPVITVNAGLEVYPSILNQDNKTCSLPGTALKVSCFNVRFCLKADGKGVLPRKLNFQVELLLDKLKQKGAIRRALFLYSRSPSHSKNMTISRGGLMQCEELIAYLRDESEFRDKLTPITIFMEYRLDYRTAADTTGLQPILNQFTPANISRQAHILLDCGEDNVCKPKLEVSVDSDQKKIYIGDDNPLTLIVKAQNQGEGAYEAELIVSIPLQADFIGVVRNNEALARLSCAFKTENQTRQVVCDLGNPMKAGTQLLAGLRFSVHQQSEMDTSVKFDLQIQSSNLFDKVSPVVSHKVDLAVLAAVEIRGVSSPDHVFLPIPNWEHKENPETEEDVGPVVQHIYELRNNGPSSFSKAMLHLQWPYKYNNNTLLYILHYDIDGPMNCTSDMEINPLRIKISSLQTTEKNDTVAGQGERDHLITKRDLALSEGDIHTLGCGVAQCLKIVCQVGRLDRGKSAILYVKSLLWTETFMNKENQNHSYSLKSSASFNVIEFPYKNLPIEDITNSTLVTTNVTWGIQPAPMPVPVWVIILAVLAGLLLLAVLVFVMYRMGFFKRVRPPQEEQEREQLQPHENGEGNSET
Sequence (P18564 22-788, chain 2 of 2): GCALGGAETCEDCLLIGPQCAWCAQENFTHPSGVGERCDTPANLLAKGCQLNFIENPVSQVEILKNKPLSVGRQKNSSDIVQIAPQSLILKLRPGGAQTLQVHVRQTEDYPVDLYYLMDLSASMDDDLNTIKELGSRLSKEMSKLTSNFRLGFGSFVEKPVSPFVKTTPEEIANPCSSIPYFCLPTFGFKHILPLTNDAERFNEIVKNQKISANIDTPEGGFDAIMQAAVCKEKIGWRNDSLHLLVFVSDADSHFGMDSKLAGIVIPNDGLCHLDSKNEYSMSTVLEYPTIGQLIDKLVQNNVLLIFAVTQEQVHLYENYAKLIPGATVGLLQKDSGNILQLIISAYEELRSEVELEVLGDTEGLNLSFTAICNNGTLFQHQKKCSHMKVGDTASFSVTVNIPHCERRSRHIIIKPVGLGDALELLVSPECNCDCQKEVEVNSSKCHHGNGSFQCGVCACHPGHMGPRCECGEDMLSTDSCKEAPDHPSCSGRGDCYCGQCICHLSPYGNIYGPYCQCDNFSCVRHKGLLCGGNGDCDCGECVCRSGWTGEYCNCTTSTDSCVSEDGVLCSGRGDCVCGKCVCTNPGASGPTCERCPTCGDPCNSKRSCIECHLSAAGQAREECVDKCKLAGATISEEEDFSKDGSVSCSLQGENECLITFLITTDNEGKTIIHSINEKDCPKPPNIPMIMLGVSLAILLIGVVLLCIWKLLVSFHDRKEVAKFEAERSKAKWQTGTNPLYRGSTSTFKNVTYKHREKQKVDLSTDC
Experiment: cell-based or functional assay
READOUT_TYPE: Estimated IC50, adhesion assay, n = 1 (ng/mL)
One number for each entry, in ng/mL.

1) sc 161 (antibody, V domains shown, kappa light chain) VH: EVQLVQSGAEVKKPGESLKISCKGSGYSFTSYWIGWVRQMPGKGLEWMGIIYPGDSDTRYSPSFQGQVTISADKSISTAYLQWSSLKASDTAMYYCARHGIAAAGFYYYYMDVWGQGTTVTVSS VL: EIVLTQSPDTLSLSPGERASLSCRASQNVNRNYLVWYQQKPGQAPRLLIYGTSNRATGIPDRFSGSGSGTDFTLTISRLEPEDFAVYYCQQCGSLPFTFGPGTKVDIKR ... 2410

The following binders each have a reported value; give each one's Estimated IC50, adhesion assay, n = 1.
1. sc 277 (antibody, V domains shown, lambda light chain) VH: EVQLVQSGAEVKKPGESLKISCKGSGYSFPSYWIGWVRQMPGKGLEWMGIIYPGDSDTRYSPSFQGQVTISADKSISTAYLQWSSLKASDTAMYYCARHPMEDGMDVWGQGTTVTVSS VL: SYELTQPPSVSVSPGQTARITCSGDALPKKYAFWYQQKSGQAPVLVIYDDNKRPSGIPERFSGSSSGTMATLTITGAQVEDEADYYCYSTDSSGHHVFGGGTKLTVL
2. sc 254 (antibody, V domains shown, kappa light chain) VH: QVQLQESGPGLVKPSQTLSLTCTVSGGSISSGGYYWSWIRQHPGKGLEWIGYIYYSGSTYYNPSLKSRVTISVDTSKNQFSLKLSSVTAADTAMYYCARYRGPAAGRGDFYYFGMDVWGQGTTVTVSS VL: DIVMTQTPLSLSVTPGQPASIFCKSSQSLLNSDGKTYLCWYLQKPGQPPQLLIYEVSNRFSGVPDRFSGSGSGTDFTLKISRVEAEDVGVYYCMQGIQLPWAFFGQGTKVEIK
3. sc 188 (antibody, V domains shown, kappa light chain) VH: QVQLQESGPGLVKPSQTLSLTCTVSGGSISSGVYYWTWIRQHPGNGLEWIGYIYYSGSTSYNPSLKSRVTISVDTSKKQFSLNLTSVTAADTAVYYCAREGPLRGDYYYGLDVWGQGTTVTVSS VL: EIVLTQSPGTLSLSPGERATLSCRAGQTISSRYLAWYQQKPGQAPRPLIYGASSRATGIPDRFSGSGSGTDFTLTISRLEPEDFAVYYCQQYGSSPRTFGQGTKVEIK

[1460, 63, 41]
